Entry source: ChEMBL document CHEMBL1961873

# testTarget: Tyrosine-protein kinase HCK (Homo sapiens) (UniProt P08631);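 also: values are mean inhibition of HCK, taken from the GSK_PKIS kinase profiling screen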
# Sequence (P08631 2-526 limits assumed): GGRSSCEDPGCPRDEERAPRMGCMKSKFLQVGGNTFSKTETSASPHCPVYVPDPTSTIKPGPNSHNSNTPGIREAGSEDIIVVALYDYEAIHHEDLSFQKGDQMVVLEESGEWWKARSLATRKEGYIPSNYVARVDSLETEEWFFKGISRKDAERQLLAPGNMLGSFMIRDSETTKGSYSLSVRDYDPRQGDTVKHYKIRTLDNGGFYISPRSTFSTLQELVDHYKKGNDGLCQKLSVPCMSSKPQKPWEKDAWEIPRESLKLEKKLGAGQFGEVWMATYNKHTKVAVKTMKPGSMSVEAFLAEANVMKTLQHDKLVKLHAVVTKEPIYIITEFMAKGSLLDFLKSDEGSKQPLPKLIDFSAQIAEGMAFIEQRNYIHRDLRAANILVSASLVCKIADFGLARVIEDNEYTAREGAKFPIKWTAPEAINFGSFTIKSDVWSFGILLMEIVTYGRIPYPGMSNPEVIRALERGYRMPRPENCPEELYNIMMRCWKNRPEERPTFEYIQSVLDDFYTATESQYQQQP
# conditionParameters: at 0.1 µM
Hi, to clarify the labels: Fulfilled covers inhibition from 6% upward, Not fulfilled covers anything below 6%.

Please review the entries below; each comes with its answer.
O=C1Nc2ccccc2/C1=C1\CCc2cc(O)ccc21	Fulfilled
CC1=C(C(=O)Nc2ccc3[nH]nc(C)c3c2)C(c2ccc(C(F)(F)F)cc2)CC(=O)N1 (stereo not given)	Not fulfilled
COc1cccc(-n2ncc3c(N/N=C/c4ccc(C(=O)NCCN(C)C)cc4)ncnc32)c1	Fulfilled
CNC(=O)c1ncccc1Nc1nc(Nc2cc3c(cc2OC)CCCN3C(=O)CN(C)C)nc2[nH]ccc12	Not fulfilled
N#Cc1ccc2c(-c3ccnc(NC4CC4)n3)c(-c3ccc(F)cc3)nn2c1	Not fulfilled

Req: Dear colleague, could you confirm whether "Cc1cc(O)cc(C)c1/C=C/c1cncc(C(=O)OC(C)(C)C)c1" has inhibition at or above 6%?
Resp: Fulfilled

Req: Dear colleague, could you confirm whether "CCOc1ccc2c(-c3ccnc(Nc4cc(OC)cc(C(F)(F)F)c4)n3)cnn2n1" has inhibition at or above 6%?
Resp: Not fulfilled

Req: Dear colleague, could you confirm whether "COc1c(C(N)=O)cc(-c2ccc(Cl)cc2)cc1-c1ccc(S(N)(=O)=O)cc1" has inhibition at or above 6%?
Resp: Fulfilled

Req: Dear colleague, could you confirm whether "NS(=O)(=O)c1ccc(N/N=C2\C(=O)Nc3cccc(CCc4ccncc4)c32)cc1" has inhibition at or above 6%?
Resp: Not fulfilled

====

# testTarget: Tyrosine-protein kinase receptor UFO (Homo sapiens) (UniProt P30530);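 also: values are mean percent inhibition of AXL from the GSK PKIS screen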
# Sequence (P30530 whole entry): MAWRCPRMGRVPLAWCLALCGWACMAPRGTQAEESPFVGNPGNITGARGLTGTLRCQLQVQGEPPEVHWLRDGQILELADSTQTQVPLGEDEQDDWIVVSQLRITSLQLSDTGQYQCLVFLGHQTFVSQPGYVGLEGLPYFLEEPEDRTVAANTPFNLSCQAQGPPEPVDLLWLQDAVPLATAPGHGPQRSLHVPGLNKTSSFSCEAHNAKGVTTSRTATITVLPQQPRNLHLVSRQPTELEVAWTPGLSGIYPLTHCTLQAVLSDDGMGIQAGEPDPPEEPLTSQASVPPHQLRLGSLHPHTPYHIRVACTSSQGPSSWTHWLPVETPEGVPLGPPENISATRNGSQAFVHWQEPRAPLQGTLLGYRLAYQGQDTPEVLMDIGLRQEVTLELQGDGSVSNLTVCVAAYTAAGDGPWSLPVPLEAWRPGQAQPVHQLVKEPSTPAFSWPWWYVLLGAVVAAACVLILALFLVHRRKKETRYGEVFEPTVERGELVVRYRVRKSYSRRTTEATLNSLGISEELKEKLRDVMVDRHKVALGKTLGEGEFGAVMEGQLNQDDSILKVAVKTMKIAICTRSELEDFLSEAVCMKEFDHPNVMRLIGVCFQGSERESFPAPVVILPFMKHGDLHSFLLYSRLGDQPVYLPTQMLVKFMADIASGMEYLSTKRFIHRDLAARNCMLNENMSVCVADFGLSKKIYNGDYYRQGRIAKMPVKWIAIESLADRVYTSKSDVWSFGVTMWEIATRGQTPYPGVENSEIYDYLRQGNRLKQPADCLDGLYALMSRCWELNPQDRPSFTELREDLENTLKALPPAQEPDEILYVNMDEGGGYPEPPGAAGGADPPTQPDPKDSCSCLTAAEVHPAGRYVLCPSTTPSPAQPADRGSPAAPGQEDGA
# conditionParameters: at 0.1 µM
measuredAttribute: inhibition (%)
Numbers only here, please. The scale is %.

Would you please look over these solved cases?
CS(=O)(=O)CCNCc1ccoc1-c1ccc2ncnc(Nc3ccc(OCc4ccccc4)cc3)c2c1	-0.99
NC(=O)c1ccc2c(-c3ccnc(NCCCO)n3)c(-c3ccc(F)cc3)nn2c1	-6.77

Req: Endpoint output: inhibition of "CS(=O)(=O)Nc1ccc(-c2ccc3c(NC(=O)C4CC4)n[nH]c3c2)cc1" . Value?
Resp: -3.54

Req: Endpoint output: inhibition of "CCOc1ccc2c(-c3ccnc(Nc4cc(OC)cc(C(F)(F)F)c4)n3)cnn2n1" . Value?
Resp: 0.45

Req: Endpoint output: inhibition of "Cc1nnc(-c2cccc(-c3ccc(C(=O)NCC4CC4)cc3)c2)o1" . Value?
Resp: -9.15

Req: Endpoint output: inhibition of "CCS(=O)(=O)c1ccc(OC)c(Nc2ncc(-c3cccc(C(C)=O)c3)o2)c1" . Value?
Resp: -3.14

Req: Endpoint output: inhibition of "CCn1c(-c2nonc2N)nc2cncc(C(=O)NCCNC)c21" . Value?
Resp: -8.56

Req: Endpoint output: inhibition of "CN(C)CCNC(=O)Nc1ccc(N(C)c2ccnc(Nc3ccc(CS(C)(=O)=O)cc3)n2)cc1" . Value?
Resp: -5.4

Req: Endpoint output: inhibition of "CC(C)c1ccc(-c2cc(-c3c[nH]nc3-c3ccccn3)ccn2)cc1" . Value?
Resp: -1.3

Req: Endpoint output: inhibition of "Cc1c2ccc(N(C)c3ccnc(Nc4cccc(S(N)(=O)=O)c4)n3)cc2nn1C" . Value?
Resp: -8.43

====

# testTarget: cAMP-dependent protein kinase catalytic subunit PRKX (Homo sapiens) (UniProt P51817);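 also: each value is the mean percent inhibition of the kinase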
# Sequence (P51817 whole entry): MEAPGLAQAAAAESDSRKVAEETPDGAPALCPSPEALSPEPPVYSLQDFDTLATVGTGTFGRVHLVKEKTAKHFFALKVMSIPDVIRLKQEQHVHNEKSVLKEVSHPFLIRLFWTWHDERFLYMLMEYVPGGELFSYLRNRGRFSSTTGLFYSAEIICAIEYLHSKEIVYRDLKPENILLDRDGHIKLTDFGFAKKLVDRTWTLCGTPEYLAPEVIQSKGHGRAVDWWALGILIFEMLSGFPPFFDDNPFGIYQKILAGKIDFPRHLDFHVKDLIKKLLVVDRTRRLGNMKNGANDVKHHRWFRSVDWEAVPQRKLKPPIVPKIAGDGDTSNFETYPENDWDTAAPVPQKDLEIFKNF
# conditionParameters: at 1 µM
measuredAttribute: inhibition (%)
Numbers only here, please. The scale is %.

COc1ccc(-c2nn3ncccc3c2-c2ccnc(Nc3ccc(F)c(F)c3)n2)cc1	8.39
CS(=O)(=O)Nc1ccc(-c2ccc3c(NC(=O)C4CC4)n[nH]c3c2)cc1	-0.97
CNC(=O)c1sc(-n2cnc3cc(OC)c(OC)cc32)cc1OCc1ccccc1C(F)(F)F	1.17

Req: Endpoint output: inhibition of "CN(c1ccc(NC(=O)NCCN2CCOCC2)cc1)c1ccnc(Nc2ccc(CS(C)(=O)=O)cc2)n1" . Value?
Resp: 4.38

Req: Endpoint output: inhibition of "Cc1ccc(-c2cc3c(NC(=O)C4CC4)ncnc3o2)cc1" . Value?
Resp: 0.33

Req: Endpoint output: inhibition of "COC(=O)Nc1nc2cc(Oc3ccc(NC(=O)Nc4ccccc4)cc3)ccc2[nH]1" . Value?
Resp: 3.93

Req: Endpoint output: inhibition of "COc1cc(N2CCN(C(C)C)CC2)ccc1Nc1nc(Nc2cccc(F)c2C(=O)O)c2cc[nH]c2n1" . Value?
Resp: 2.86

Req: Endpoint output: inhibition of "COc1cc2c(cc1Nc1nc(Nc3cccc(F)c3C(N)=O)c3cc[nH]c3n1)N(C(=O)CN1CCN(C(C)C)CC1)CC2" . Value?
Resp: 2.36

Req: Endpoint output: inhibition of "NS(=O)(=O)c1cccc(N/C=C2\C(=O)Nc3ccccc32)c1" . Value?
Resp: 2.25

Req: Endpoint output: inhibition of "COc1cc(N2CCN(C(C)C)CC2)ccc1Nc1nc(Nc2cccc3ncccc23)c2cc[nH]c2n1" . Value?
Resp: -0.18

Req: Endpoint output: inhibition of "NC(=O)c1ccc2c(-c3ccnc(NCCCO)n3)c(-c3ccc(F)cc3)nn2c1" . Value?
Resp: 1.05

Req: Endpoint output: inhibition of "COc1cccc(Nc2nccc(-c3cnn4ncccc34)n2)c1" . Value?
Resp: -0.01

Req: Endpoint output: inhibition of "CCS(=O)(=O)c1ccc(OC)c(Nc2ncc(-c3cccc(F)c3)o2)c1" . Value?
Resp: 2.6

====

# testTarget: cGMP-dependent protein kinase 1 (Homo sapiens);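 also: listed percent inhibition of PRKG1 is a mean value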
# Sequence (whole entry): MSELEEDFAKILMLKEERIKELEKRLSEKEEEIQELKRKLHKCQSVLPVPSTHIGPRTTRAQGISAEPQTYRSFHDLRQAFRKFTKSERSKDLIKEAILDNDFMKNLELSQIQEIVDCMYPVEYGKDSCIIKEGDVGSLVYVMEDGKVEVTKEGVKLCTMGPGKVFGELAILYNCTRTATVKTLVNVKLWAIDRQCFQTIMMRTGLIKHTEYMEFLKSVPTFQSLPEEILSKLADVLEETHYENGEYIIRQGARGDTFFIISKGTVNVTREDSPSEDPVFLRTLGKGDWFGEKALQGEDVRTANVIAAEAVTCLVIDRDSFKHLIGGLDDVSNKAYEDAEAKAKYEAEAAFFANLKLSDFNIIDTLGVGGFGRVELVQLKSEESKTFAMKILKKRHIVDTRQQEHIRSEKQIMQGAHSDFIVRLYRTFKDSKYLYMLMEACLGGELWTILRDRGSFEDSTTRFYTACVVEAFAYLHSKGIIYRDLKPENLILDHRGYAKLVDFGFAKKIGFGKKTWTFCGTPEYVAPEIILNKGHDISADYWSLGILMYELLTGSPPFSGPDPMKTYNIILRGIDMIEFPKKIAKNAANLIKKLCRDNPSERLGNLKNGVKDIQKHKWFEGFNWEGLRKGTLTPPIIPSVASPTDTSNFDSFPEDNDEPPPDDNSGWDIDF
# conditionParameters: at 1 µM
measuredAttribute: inhibition (%)
Numbers only here, please. The scale is %.

Would you please look over these solved cases?
Cc1cc(O)cc(C)c1/C=C/c1cncc(C(N)=O)c1	5.83
OCCCNc1nccc(-c2c(-c3ccc(F)cc3)nn3cc(C(F)(F)F)ccc23)n1	4.78
NC(=O)c1ccc2c(-c3ccnc(NCCCO)n3)c(-c3ccc(F)cc3)nn2c1	5.16
NS(=O)(=O)c1ccc(N/N=C2\C(=O)Nc3ccc(C(=O)NCc4ccncc4)cc32)cc1	19.3
Fc1ccc(Nc2nccc(-c3c(-c4ccc(C(F)(F)F)cc4)nn4ncccc34)n2)cc1F	3.28

Req: Endpoint output: inhibition of "Cc1cc(O)cc(C)c1/C=C/c1cncc(C(=O)OC(C)(C)C)c1" . Value?
Resp: 3.58

Req: Endpoint output: inhibition of "O=C1Nc2ccccc2/C1=C1\CCc2cc(O)ccc21" . Value?
Resp: 8.21

Req: Endpoint output: inhibition of "O=C(O[C@H]1CN[C@H](C#Cc2cc3ncnc(Nc4ccc(OCc5cccc(F)c5)c(Cl)c4)c3s2)C1)N1CCOCC1" . Value?
Resp: 7.14

Req: Endpoint output: inhibition of "COc1c(C(N)=O)cc(-c2ccc(Cl)cc2)cc1-c1ccc(S(N)(=O)=O)cc1" . Value?
Resp: 9.49

Req: Endpoint output: inhibition of "CNC(=O)c1cncc(/C=C/c2ccccc2C)c1" . Value?
Resp: 5.68

====

# System: Leucine-rich repeat serine/threonine-protein kinase 2 (Homo sapiens), Q5S007 [G2019S]
# Sequence (Q5S007 whole entry G2019S): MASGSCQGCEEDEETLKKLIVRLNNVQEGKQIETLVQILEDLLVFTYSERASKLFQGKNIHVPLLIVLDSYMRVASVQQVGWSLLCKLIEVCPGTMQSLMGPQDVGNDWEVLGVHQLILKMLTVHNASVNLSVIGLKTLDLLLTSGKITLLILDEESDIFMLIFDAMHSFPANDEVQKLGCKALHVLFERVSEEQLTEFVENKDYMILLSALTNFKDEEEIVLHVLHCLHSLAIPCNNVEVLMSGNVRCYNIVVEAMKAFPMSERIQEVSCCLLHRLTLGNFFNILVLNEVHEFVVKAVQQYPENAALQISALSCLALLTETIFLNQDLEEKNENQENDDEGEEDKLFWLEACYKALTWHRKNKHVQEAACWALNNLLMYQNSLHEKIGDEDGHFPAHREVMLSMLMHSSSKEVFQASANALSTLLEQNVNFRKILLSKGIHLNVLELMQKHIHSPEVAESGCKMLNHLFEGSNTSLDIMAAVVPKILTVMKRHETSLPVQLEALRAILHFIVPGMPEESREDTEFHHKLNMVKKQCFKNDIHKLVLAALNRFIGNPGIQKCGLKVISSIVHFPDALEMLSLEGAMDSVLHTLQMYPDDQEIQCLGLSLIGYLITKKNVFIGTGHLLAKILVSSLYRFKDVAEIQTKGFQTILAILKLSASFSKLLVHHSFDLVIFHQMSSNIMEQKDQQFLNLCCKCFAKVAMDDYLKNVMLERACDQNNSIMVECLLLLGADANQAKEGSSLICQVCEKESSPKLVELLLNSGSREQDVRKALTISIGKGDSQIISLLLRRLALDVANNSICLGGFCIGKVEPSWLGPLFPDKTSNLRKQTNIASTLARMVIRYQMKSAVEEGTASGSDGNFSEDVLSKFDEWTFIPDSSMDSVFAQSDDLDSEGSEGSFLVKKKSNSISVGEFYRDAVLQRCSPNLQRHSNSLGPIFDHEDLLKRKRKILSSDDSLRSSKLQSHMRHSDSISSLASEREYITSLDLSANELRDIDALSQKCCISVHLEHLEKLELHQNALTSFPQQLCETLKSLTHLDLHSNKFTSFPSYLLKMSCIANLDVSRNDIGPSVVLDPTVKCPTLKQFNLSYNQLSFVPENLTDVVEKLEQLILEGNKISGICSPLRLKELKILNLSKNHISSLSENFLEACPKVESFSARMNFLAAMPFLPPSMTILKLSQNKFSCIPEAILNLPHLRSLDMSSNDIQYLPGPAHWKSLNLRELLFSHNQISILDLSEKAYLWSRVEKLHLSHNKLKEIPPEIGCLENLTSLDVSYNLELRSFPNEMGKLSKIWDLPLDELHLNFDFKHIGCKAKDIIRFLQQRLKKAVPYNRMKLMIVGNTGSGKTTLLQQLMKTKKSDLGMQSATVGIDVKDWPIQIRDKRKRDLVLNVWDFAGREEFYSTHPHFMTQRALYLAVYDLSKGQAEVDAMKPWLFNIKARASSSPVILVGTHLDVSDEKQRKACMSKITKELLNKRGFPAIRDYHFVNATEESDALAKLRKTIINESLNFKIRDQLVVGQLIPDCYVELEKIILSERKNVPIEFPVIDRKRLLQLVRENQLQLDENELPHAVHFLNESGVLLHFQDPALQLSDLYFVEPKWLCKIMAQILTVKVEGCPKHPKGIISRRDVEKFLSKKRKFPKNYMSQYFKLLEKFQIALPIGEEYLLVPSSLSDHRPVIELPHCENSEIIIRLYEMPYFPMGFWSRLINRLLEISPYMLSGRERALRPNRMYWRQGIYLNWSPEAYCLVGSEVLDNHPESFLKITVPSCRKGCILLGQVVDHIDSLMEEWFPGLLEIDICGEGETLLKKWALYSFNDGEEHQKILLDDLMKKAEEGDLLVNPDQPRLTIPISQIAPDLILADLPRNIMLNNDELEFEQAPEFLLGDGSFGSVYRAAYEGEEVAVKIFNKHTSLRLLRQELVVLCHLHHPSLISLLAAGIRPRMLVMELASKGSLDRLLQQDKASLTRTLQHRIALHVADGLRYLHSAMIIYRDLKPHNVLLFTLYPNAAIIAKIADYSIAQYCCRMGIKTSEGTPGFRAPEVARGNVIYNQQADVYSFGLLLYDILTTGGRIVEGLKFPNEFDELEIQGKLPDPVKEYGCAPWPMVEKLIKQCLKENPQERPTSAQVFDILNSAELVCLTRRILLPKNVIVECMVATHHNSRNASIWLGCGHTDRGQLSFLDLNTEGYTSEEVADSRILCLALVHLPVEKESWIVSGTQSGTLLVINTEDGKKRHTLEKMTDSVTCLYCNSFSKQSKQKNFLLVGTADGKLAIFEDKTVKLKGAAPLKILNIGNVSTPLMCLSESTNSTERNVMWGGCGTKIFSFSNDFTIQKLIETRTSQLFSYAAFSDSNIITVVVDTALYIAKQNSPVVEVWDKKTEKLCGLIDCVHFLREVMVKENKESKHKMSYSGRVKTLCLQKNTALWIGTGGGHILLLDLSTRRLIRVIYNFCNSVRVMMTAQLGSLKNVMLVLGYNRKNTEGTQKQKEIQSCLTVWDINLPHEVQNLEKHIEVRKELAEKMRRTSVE
# conditionParameters: at 1 µM
Hi, to clarify the labels: Condition met covers inhibition from 10% upward, Condition not met covers anything below 10%.

Please review the entries below; each comes with its answer.
CCCNc1cccc(-n2ncc3c(N/N=C/c4ccncc4)ncnc32)c1	Condition met
CS(=O)(=O)Nc1ccc(-c2ccc3c(NC(=O)C4CC4)n[nH]c3c2)cc1	Condition met
Cc1c2ccc(N(C)c3ccnc(Nc4cccc(S(N)(=O)=O)c4)n3)cc2nn1C	Condition met
CS(=O)(=O)Nc1ccc(-c2cc(-c3ccccc3)cc(C(N)=O)c2N)cc1	Condition not met
OCCCNc1nccc(-c2c(-c3ccc(F)cc3)nn3cc(C(F)(F)F)ccc23)n1	Condition not met

Req: Dear colleague, could you confirm whether "COC(=O)Nc1nc2cc(Oc3ccc(NC(=O)Nc4ccccc4)cc3)ccc2[nH]1" has inhibition at or above 10%?
Resp: Condition not met

Req: Dear colleague, could you confirm whether "FC(F)(F)CNc1nccc(-c2cnn3ncccc23)n1" has inhibition at or above 10%?
Resp: Condition not met

Req: Dear colleague, could you confirm whether "COc1ccc(Nc2ncc(-c3ccccc3)o2)cc1OC" has inhibition at or above 10%?
Resp: Condition met
